fold change in fluorescence relative to zaprinast alone: recorded values
# Tested on: GCaMP5-expressing T. gondii
# Construct: whole extracellular parasites expressing GCaMP5 Ca2+ sensor
# Design: species or system GCaMP5-expressing Toxoplasma gondii, extracellular; GCaMP5 fluorescence (cytosolic Ca2+) after 100 uM zaprinast in compound-pretreated extracellular parasites, background-subtracted, relative to zaprinast alone
# experimentalParameters: 100 uM zaprinast stimulation; 10 min pretreatment; mean of two replicates; 0.23 h
# Description: GCaMP5-expressing parasites were suspended in Ringer's solution at 4 × 10^7 parasites/ml, and 50 μl of parasites were applied to each well of a 96-well plate (Costar, catalog no. 3631). […] Parasites were then treated with 100 μM zaprinast or 0.1% DMSO as a vehicle control and incubated at 37 °C with 5% CO2 for an additional 4 min before measuring fluorescence with excitation and emission wavelengths of 485 and 525 nm, respectively, on a SpectraMax M3 (Molecular Devices). […]

{"columns": ["molecule", "result"],
 "data": [
  ["COc1cc(Nc2ncc3c(C)nc(-c4cccc(C(F)(F)F)c4)n3n2)cc(OC)c1OC [GW837331X]", 0.3788],
  ["Cc1nnc(-c2ccc(C)c(-c3ccc(C(=O)Nc4ccc(NS(C)(=O)=O)cc4)cc3)c2)o1 [GW702865X]", 1.258],
  ["CCC(CC)(CC)n1cnc2c(N)ncnc21", 0.9821],
  ["COc1ccc(Nc2nccc(N3CCC(NC(=O)C(C)c4ccc(Cl)cc4)CC3)n2)cc1 (centres unmarked) [GSK1379812A]", 1.185]
]}

Here is the next item to consider.
Lookup result for Cc1ccc(Nc2ccnc(Nc3ccc4c(c3)CS(=O)(=O)C4)n2)cc1O [GW579362A] ; measured fold change in fluorescence relative to zaprinast alone: 1.38

---

# Test system: GCaMP5-expressing T. gondii
# Construct: whole extracellular parasites expressing GCaMP5 Ca2+ sensor
# Set-up: species or system GCaMP5-expressing Toxoplasma gondii, extracellular; GCaMP5 fluorescence (cytosolic Ca2+) after 100 uM zaprinast in compound-pretreated extracellular parasites, background-subtracted, relative to zaprinast alone
# experimentalParameters: 100 uM zaprinast stimulation; 10 min pretreatment; mean of two replicates; 0.23 h
fold change in fluorescence relative to zaprinast alone: recorded values
Response field accepts a number only; no unit should be typed.

Lookup result for O=C1NC(=O)C(c2ccccc2Cl)=C1Nc1cccc(O)c1 [SB-390527] ; measured fold change in fluorescence relative to zaprinast alone: 1.108

Lookup result for NS(=O)(=O)c1ccc(N/N=C2\C(=O)Nc3cccc(CCc4ccncc4)c32)cc1 [GW352430A] ; measured fold change in fluorescence relative to zaprinast alone: 1.031

Lookup result for CN(C1=C(c2ccccc2)C(=O)NC1=O)c1ccccc1 [SB-334860] ; measured fold change in fluorescence relative to zaprinast alone: 0.8099

Lookup result for COc1cc(Nc2nccc(N3CCC(NC(=O)Nc4ccc5c(c4)OCO5)C3)n2)cc(OC)c1OC (centres unmarked) [GSK1379766A] ; measured fold change in fluorescence relative to zaprinast alone: 1.478

Lookup result for C[C@@H]1CC[C@@H](C(=O)Nc2ccccc2)CN1c1cc(-c2ccc3c(N)n[nH]c3c2)nc(N)n1 [GSK2286062A] ; measured fold change in fluorescence relative to zaprinast alone: 0.9223

Lookup result for Cn1cc(-c2ccc3c(c2)CCN3C(=O)Cc2cccc(Cl)c2)c2c(N)ncnc21 [GSK2606590A] ; measured fold change in fluorescence relative to zaprinast alone: 1.488

Lookup result for CCCc1ccc(S(=O)(=O)NC2CCN(c3ccnc(Nc4ccc(OC)cc4)n3)C2)cc1 (centres unmarked) [GSK1379737A] ; measured fold change in fluorescence relative to zaprinast alone: 0.6293

Lookup result for O=C(NCc1cccs1)c1cc(C(=O)c2c(Cl)cccc2Cl)c[nH]1 [GW823670X] ; measured fold change in fluorescence relative to zaprinast alone: 1.033

Hey, just so you know, these numbers are from paper PMC4850295.
